Below are IC50 measurements against Cytochrome P450 2C9 (Homo sapiens, UniProt P11712) drawn from the literature.

CC(C)N1CCC(Oc2ccc3c(c2)cc2n3[C@@H](C)CNC2=O)CC1 = > 50 µM

Form field - read-out: IC50; system: Cytochrome P450 2C9 (Homo sapiens, UniProt P11712); submitted item: C[C@H]([C@@H](c1ccc(Nc2nc3ccccc3s2)cc1)n1ccnc1)N(C)C
5.9 µM

Form field - read-out: IC50; system: Cytochrome P450 2C9 (Homo sapiens, UniProt P11712); submitted item: O=C1NN=C(c2ccc(OC3CCN(C4CCC4)CC3)cc2)[C@H]2C[C@@H]12
> 30 µM

Form field - read-out: IC50; system: Cytochrome P450 2C9 (Homo sapiens, UniProt P11712); submitted item: CC(C)N1CCC(Oc2ccc3c(c2)cc2n3C[C@@H](C)NC2=O)CC1
> 50 µM

Form field - read-out: IC50; system: Cytochrome P450 2C9 (Homo sapiens, UniProt P11712); submitted item: Nc1nc2ccc(C(=O)NCc3ccccc3)cc2s1
> 25 µM

---

Below are pIC50 measurements against Cytochrome P450 2C9 (Homo sapiens, UniProt P11712) drawn from the literature.
pIC50: −log10 of the molar value.
endpoint: pIC50

COC(=O)N[C@H](C(=O)N1C[C@@H](C)C[C@H]1c1ncc(-c2ccc(-c3ccc(-c4cc5[nH]c([C@@H]6C[C@H](C)CN6C(=O)[C@@H](NC(=O)OC)C(C)C)nc5s4)s3)cc2)[nH]1)C(C)C = 4.68
COc1cccc2nc(CCCN(C)CC[C@]3(OC(=O)C(C)C)C[C@H]4CCC[C@@H]3c3ccccc34)[nH]c12 = 4.49
Cc1c(Cl)cccc1N1CCN(CCCNC(=O)c2nc(-c3ccccc3)n(-c3ccccc3)c2Cn2cncn2)CC1 = 5.48
Cc1c(-c2cn(C(C)C)c(=O)c3ccccc23)c2cc(F)ccc2n1CC(=O)O = 4.26

P: CCCS(=O)(=O)c1ccc2[nH]c(-c3ccccc3-c3ccccc3)nc2c1
Q: O=C(NOCCO)c1ccc2cnsc2c1Nc1ccc(I)cc1F
Please indicate which has the smaller reported pIC50: P , or Q . Reply with the label of the item you choose.
P
(P: 5.35, Q: 5.89)

---

pIC50: −log10 of the molar value.
Below are pIC50 measurements against Cytochrome P450 2C9 (Homo sapiens) drawn from the literature.
endpoint: pIC50

N#Cc1cccc(-c2ccc3ncc(-c4cc(F)cc(F)c4)c(N4CCC(N)CC4)c3c2)c1O = 5.10
COc1cccc(CN(C)C(=O)Nc2ccc(-c3cn[nH]c3)cc2)c1 = 6.22
CC(=O)N1CCN(c2c(-c3ccncc3)c(-c3ccc(F)cc3)c(C#N)n2C)CC1 = 5.40
COc1cc2c(Nc3ccccc3C(C)(C)C)c(C(N)=O)cnc2cc1-c1c(C)noc1C = 5.92
COc1ccc2c(c1)[C@]1(C[C@H]1c1ccc3c(/C=C/c4ccc(CN5CCCCC5)nc4)n[nH]c3c1)C(=O)N2 (relative stereo) = 5.85
Cc1nc2cc(-c3ccccc3)nn2c(-c2ccc(Cl)cc2Cl)c1CN = 4.92

a: Fc1cc(OC(F)(F)C(F)F)cc([C@@](Cc2ccccc2)(Nc2nc3c(F)cc(F)cc3[nH]2)c2ccc(Cl)cn2)c1
b: Cc1cccc2c(Nc3cccc(-c4nc5c(C(N)=O)cccc5[nH]4)c3)c3ccccc3nc12
Between a and b , whose recorded pIC50 is greater? Reply with the label of the item you choose.
b
(b: 5.66, a: 4.82)

a: CCc1ccc(-c2ccc(C(=O)N3CCc4c(c5ccccc5n4CC(=O)O)C3)cc2)cc1
b: COc1ccc(CN2CCN(c3ccc(NC(=O)c4cc(OC)c(OC)cc4NC(=O)c4cnc5ccccc5c4)cc3)CC2)cc1OC
Please indicate which has the smaller reported pIC50: a , or b . Reply with the label of the item you choose.
a

I: CCN1C(=O)COc2ccc(CN3CCN(CCOc4cccc5nc(C)ccc45)CC3)cc21
II: O=C(N[C@@H]1CC[C@@]2(S(=O)(=O)c3ccc(F)cc3)c3ccc(C(F)(C(F)(F)F)C(F)(F)F)cc3CC[C@@H]12)C1CCS(=O)(=O)CC1
III: Cc1cccc(CC(=O)N2CCc3c2ccc(-c2cn(C)c4ncnc(N)c24)c3F)n1
IV: C[C@@H](NC(=O)c1cc(-c2ccc(Cl)cn2)cc(C(C)(C)O)c1)c1ccc(C(F)(F)F)[n+]([O-])c1
V: Cc1cc2c(F)c(Oc3ncnn4cc(OC[C@@H](C)OC(=O)C(N)CC(C)C)c(C)c34)ccc2[nH]1 (single isomer, unassigned)
Sort the compounds on pIC50; start with the lowest figure. In your reply, arrange the labels in the requested order.
IV, III, I, II, V
(IV: 4.09, III: 4.61, I: 4.85, II: 5.26, V: 5.57)

I: N#Cc1cccc(C(=O)N2CCC(c3ccc(C(=O)NC(=N)N)cc3C(F)(F)F)CC2)c1
II: COc1cnc(-c2ccc(Cn3c(CC(C)(C)C(=O)[O-])c(SC(C)(C)C)c4cc(OCc5ccc(C)cn5)ccc43)cc2)nc1.[Na+]
III: CN(C)[C@H]1CC[C@@H](c2ccc(OCCCN3CCCCC3)cc2)CC1
Thanks in advance: please rank these 3 entries by pIC50, highest to lowest. In your reply, arrange the labels in the requested order.
II, III, I
(II: 5.35, III: 4.95, I: 4.72)
